Test system: DU-145 prostate
Experiment: NCI-60 one-dose screen, 48 h
Settings: 10 µM
This is part of a sample that, as a whole, favours compounds with a hit. Of some 83,000 tested, about 20% had one in any assay. Active and inactive are the calls of the source. Rule for the calls: active = growth percent below 10; inactive = the rest.
Write down one outcome, taken from 1 (active), -1 (inactive)

Answer briefly: the call reported for COc1ccc(C(=O)c2cc3c(OC)c(OC)c(OC)cc3[nH]2)cc1 in this assay.
-1

Answer briefly: the call reported for O=C(CCCCC(=O)Oc1c(Cl)cc(Cl)cc1[N+](=O)[O-])Oc1c(Cl)cc(Cl)cc1[N+](=O)[O-] in this assay.
-1

Answer briefly: the call reported for COc1ccc2nc3cc(Cl)ccc3c(N)c2c1 in this assay.
1

Answer briefly: the call reported for COc1cc2c3c(n(C4CCN(C)CC4)c(=O)c2cc1OC)-c1cc2c(cc1C3=O)OCO2 in this assay.
-1

Answer briefly: the call reported for O=S(=O)(Oc1ccc(-c2ccc3sccc3c2)cc1)c1ccccc1 in this assay.
-1

Answer briefly: the call reported for CCN(CC)CCNc1ccc(C)c2sc3cc(Cl)ccc3c(=O)c12 in this assay.
-1

Answer briefly: the call reported for NS(=O)(=O)Oc1ccc(-c2ccc3sccc3c2)cc1 in this assay.
-1

Answer briefly: the call reported for CCCCC/C=C/C/C=C/CCCCCCCC1=NC(C)(C)CN1C(C)C in this assay.
-1

Answer briefly: the call reported for COc1cc(NC(=O)C2=C(N3CCOCC3)/C(=C/c3ccc(Cl)cc3)CC2)cc(OC)c1OC in this assay.
-1

Answer briefly: the call reported for CCOC(=O)CSc1nc(-c2cc(OC)ccc2OC)cc(-c2ccc(OC)cc2)c1C#N in this assay.
-1

Answer briefly: the call reported for Cc1cc(Br)nnc1Br in this assay.
-1

Answer briefly: the call reported for CC(=O)N[C@H](C(=O)N[C@@H](CCCNC(=N)N)C(=O)N[C@@H](CCCCN)C(=O)N[C@@H](CCCNC(=N)N)C(=O)NC(C(=O)N[C@@H](CC(C)C)C(=O)N[C@@H](CCCNC(=N)N)C(=O)N[C@@]1(C)CCC/C=C\CCC[C@@](C)(C(=O)N[C@@H](CCCNC(=N)N)C(=O)N[C@@H](CCC(=O)O)C(=O)N[C@@H](CC(C)C)C(=O)N[C@H](C(=O)N[C@@H](CCC(=O)O)C(N)=O)C(C)C)NC(=O)[C@H](CCC(N)=O)NC(=O)[C@H](CC(C)C)NC(=O)[C@H](CC(C)C)NC1=O)[C@@H](C)O)C(C)C (some centres not stated) in this assay.
1

Answer briefly: the call reported for COc1cc(C(=O)N2CCN(c3cc4c(cc3F)c(=O)c(C(=O)NO)cn4C3CC3)CC2)cc(OC)c1OC in this assay.
-1

Answer briefly: the call reported for Clc1ccc(C2=NN=C3C(Cc4ccccc4)=Nc4ccccc4N3C2)cc1 in this assay.
-1

Answer briefly: the call reported for COc1ccc(/C=C2\CCCC3=C2NC(N)=NC3c2ccc(OC)cc2)cc1 (configuration not stated) in this assay.
-1

Answer briefly: the call reported for Cc1ccc(S(=O)(=O)N/N=C2\CCCc3ccccc32)cc1 in this assay.
-1

Answer briefly: the call reported for CC(C)(C)OC(=O)N1CCc2c(sc3ncnc(N/N=C/c4ccc(Br)cc4)c23)C1 in this assay.
-1

Answer briefly: the call reported for Cc1cn(-c2cccc(NC(=O)c3ccc(C)c(Nc4nccc(-c5cccnc5)n4)c3)c2)cn1 in this assay.
-1

Answer briefly: the call reported for Cc1c2cnccc2c(C)c2c1c1cc(O)ccc1n2C(C)C in this assay.
-1

Answer briefly: the call reported for Cc1c[nH]c(=O)n(Cc2nnc(CCC(=O)c3nc4ccccc4[nH]3)o2)c1=O in this assay.
1

Answer briefly: the call reported for CCN(CC)CCCC(Nc1c2ccc(Cl)cc2nc2ccc(OC)cc12)c1ccc(F)cc1 (configuration not stated) in this assay.
-1

Answer briefly: the call reported for CCCCCOC(=O)Nc1nc(=O)n(C2O[C@H](C)[C@@H](O)[C@H]2O)cc1F (some centres not stated) in this assay.
-1

Answer briefly: the call reported for Oc1ccc(/C=N/N=C2c3ccccc3-c3ccccc32)c(O)c1 in this assay.
-1

Answer briefly: the call reported for N#CCc1csc(Cc2ccccc2)n1 in this assay.
-1

Answer briefly: the call reported for CCOC(=O)c1cc(C(=O)c2cc(OC)c(OC)c(OC)c2)n2ncc3ccccc3c12 in this assay.
-1

Answer briefly: the call reported for CCn1cc(CNc2ccc(C(=O)Nc3ccc4ccccc4c3)cc2)c(C)n1 in this assay.
-1

Answer briefly: the call reported for COc1ccc2nc(Cl)c(Cn3nnc(Cc4ccccc4)n3)cc2c1 in this assay.
-1

Answer briefly: the call reported for CNC(=O)c1c(I)c(NC(C)=O)c(I)c(C(=O)O)c1I in this assay.
-1

Answer briefly: the call reported for CC1=CC2C(C(O)CC3(C)C2CC(C)C32OCOC23COCO3)C2(C)C/C(=C/O)C(=O)C=C12 (configuration not stated) in this assay.
-1

Answer briefly: the call reported for COc1ccc(/C=C/c2nnc(/C=C/c3ccc(OC)c(OC)c3)o2)cc1OC in this assay.
-1

Answer briefly: the call reported for CCOC(=O)c1cc(C(=O)c2cc(OC)c(OC)c(OC)c2)n2ccc(-c3cc[n+](CC(=O)c4cc(OC)c(OC)c(OC)c4)cc3)cc12 in this assay.
-1

Answer briefly: the call reported for CC(C)(C)c1ccc(S(=O)(=O)Oc2ccc(NC(=O)C3CCCCC3)cc2)cc1 in this assay.
-1

Answer briefly: the call reported for C=CCn1c(SCC(=O)Nc2ccc(C(=O)/C=C/c3cc(OC)c(OC)c(OC)c3)cc2)nnc1-c1cc(-c2ccc(Cl)cc2)nc2ccccc12 in this assay.
-1

Answer briefly: the call reported for Cc1nn(-c2ccccc2)c2nc(Cl)c(C=O)c(-c3ccccc3)c12 in this assay.
-1

Answer briefly: the call reported for COc1ccc(NC(=O)C2CC3C=CC2C3)c([N+](=O)[O-])c1 (configuration not stated) in this assay.
-1

Answer briefly: the call reported for CCOc1ccccc1/C=N\N=C\c1ccccc1O in this assay.
-1

Answer briefly: the call reported for CC(C)Cc1ccc([C@H](C)C(=O)O)cc1 in this assay.
-1
